// endpoint pIC50 / system Type I NOS (rat brain cytosol) (Rattus norvegicus, UniProt P29476)
The quantity pIC50 is defined as the negative base-10 logarithm of the molar concentration.

{"COMPOUND": "CNC(=N)NC/C=C/[C@H](N)CO", "METRIC_NAME": "pIC50", "MEASURED_VALUE": 4.52}
{"COMPOUND": "N=C(NC/C=C/[C@H](N)CO)N[N+](=O)[O-]", "METRIC_NAME": "pIC50", "MEASURED_VALUE": 4.40}

# input for lookup
Task: Would you kindly share the measured pIC50 for CNC(=N)NC/C=C/[C@H]1COC(C)(C)N1C(=O)OC(C)(C)C ?
Output: 4.10
